# TESTED_ON: HCV NS3 protease type 1b/NS4A cofactor peptide (Hepatitis C virus genotype 1b, UniProt P26663)
# Construct: recombinant HCV NS3 protease (amino acid 1027 to 1206) was cloned in the pET11d bacterial expression vector; made in house; host or cells: E. coli BL21(DE3)pLysS
# Sequence (P26663 1027-1206, other chains not shown): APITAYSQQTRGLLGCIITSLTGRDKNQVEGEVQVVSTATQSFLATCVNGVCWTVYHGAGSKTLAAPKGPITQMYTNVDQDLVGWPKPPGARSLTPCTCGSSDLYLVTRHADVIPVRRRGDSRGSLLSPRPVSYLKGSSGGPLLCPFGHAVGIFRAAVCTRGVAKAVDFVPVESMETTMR
# METHOD_NOTES: Recombinant HCV NS3 protease/NS4A cofactor peptide radiometric assay
# Format: biochemical, HCV genotype 1b
# DETAILS: Table 1, unmarked values: NS3 protease/NS4A cofactor peptide radiometric assay; read-out: IC50
Where a SMILES comes first, the peptide text is derived from it. [ ]: non-standard residue; d: D form. AllylGly = C=CC[C@H](N)C(=O)O; Tle = CC(C)(C)[C@H](N)C(=O)O; Ac5c = NC1(C(=O)O)CCCC1; Abu = CC[C@H](N)C(=O)O; Ac3c = NC1(C(=O)O)CC1
PROPERTY_NAME: pIC50
Give bare numbers, as −log10 of the molar value.

Worked cases, answers included:
COMPOUND	pIC50
CC[C@H](C)[C@H](NC(=O)[C@H](CC(=O)O)NC(=O)[C@H](CC(=O)O)NC(C)=O)C(=O)N[C@H](C(=O)N1CCC[C@H]1C(=O)NC1(C(=O)O)CCCC1)C(C)C [compound 125] (Ac-DDIVP[Ac5c]-OH)	3.68
CC[C@H](C)[C@H](NC(=O)[C@@H](NC(=O)[C@H](CC(=O)O)NC(C)=O)C(C)(C)C)C(=O)N[C@H](C(=O)N1CCC[C@H]1C(=O)N[C@@H](CS)C(=O)O)C(C)C [compound 108] (Ac-D[Tle]IVPC-OH)	4.51
C=CC[C@H](NC(=O)[C@@H]1CCCN1C(=O)[C@@H](NC(=O)[C@@H](NC(=O)[C@H](CC(=O)O)NC(=O)[C@H](CC(=O)O)NC(C)=O)[C@@H](C)CC)C(C)C)C(=O)O [compound 124] (Ac-DDIVP[AllylGly]-OH)	3.68
CC[C@H](C)[C@H](NC(=O)[C@@H](CCC(=O)O)NC(=O)[C@H](CC(=O)O)NC(C)=O)C(=O)N[C@H](C(=O)N1CCC[C@H]1C(=O)N[C@@H](CS)C(=O)O)C(C)C [compound 105] (Ac-D[dE]IVPC-OH)	5.82
CC[C@H](C)[C@H](NC(=O)[C@@H](CC(=O)O)NC(=O)[C@H](CC(=O)O)NC(C)=O)C(=O)N[C@H](C(=O)N1CCC[C@H]1C(=O)N[C@@H](CS)C(=O)O)C(C)C [compound 104] (Ac-D[dD]IVPC-OH)	5.07
CC[C@H](C)[C@H](NC(=O)[C@H](CC(=O)O)NC(=O)[C@H](CC(=O)O)NC(C)=O)C(=O)N[C@H](C(=O)N1CCC[C@H]1C(=O)NC1(C(=O)O)CC1)C(C)C [compound 126] (Ac-DDIVP[Ac3c]-OH)	4.35
CCC[C@H](NC(=O)[C@@H]1CCCN1C(=O)[C@@H](NC(=O)[C@@H](NC(=O)[C@H](CC(=O)O)NC(=O)[C@H](CC(=O)O)NC(C)=O)[C@@H](C)CC)C(C)C)C(=O)O [compound 123]	3.66
CC(=O)N[C@@H](CC(=O)O)C(=O)N[C@@H](CC(=O)O)C(=O)N[C@H](C(=O)N[C@H](C(=O)N1CCC[C@H]1C(=O)N[C@@H](CS)C(=O)O)C(C)C)C(C)(C)C [compound 111] (Ac-DD[Tle]VPC-OH)	4.10

Please find the next compound below.
Q. Given the compound CC[C@H](NC(=O)[C@@H]1CCCN1C(=O)[C@@H](NC(=O)[C@@H](NC(=O)[C@H](CC(=O)O)NC(=O)[C@H](CC(=O)O)NC(C)=O)[C@@H](C)CC)C(C)C)C(=O)O [compound 122] (Ac-DDIVP[Abu]-OH) , write its reported pIC50.
A. 3.50
